# credit: patent US11859014B2

Target: Norovirus GI.1 (Norwalk virus) protease (Norovirus (strain Human/NoV/United States/Norwalk/1968/GI) (Hu/NV/NV/1968/US), UniProt Q83883)
Sequence (Q83883 1101-1281): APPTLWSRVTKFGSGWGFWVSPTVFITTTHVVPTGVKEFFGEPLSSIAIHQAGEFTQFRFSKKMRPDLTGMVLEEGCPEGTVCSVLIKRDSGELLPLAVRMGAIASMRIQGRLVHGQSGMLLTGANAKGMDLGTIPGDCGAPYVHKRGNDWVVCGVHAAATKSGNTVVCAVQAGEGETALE
Test: FRET based enzyme assay, Norovirus GI.1 protease
Conditions: 37° C.
Answer each item with its documented pKi.
Quick note: pKi values are minus log10 of concentrations in mol/L.

Need pKi, item CC(C)C[C@H](NC(=O)[C@H](Cc1cccc2ccccc12)NC(=O)OCc1ccccc1)C(=O)N[C@@H](C[C@@H]1CCCNC1=O)C(O)S(=O)(=O)O (stereo partly shown) [Compound 37]
5.65

Need pKi, item O=C[C@H](C[C@@H]1CCCNC1=O)NC(=O)[C@H](Cc1ccccc1)NC(=O)[C@H](Cc1cccc2ccccc12)NC(=O)OCc1ccccc1 [Compound 83]
6.59

Need pKi, item CC(C)C[C@H](NC(=O)[C@H](Cc1cccc2ccccc12)NC(=O)OCc1ccccc1)C(=O)N[C@H](/C=C(\C#N)C(N)=O)C[C@@H]1CCCNC1=O [Compound 36]
5.77

Need pKi, item CC(C)C[C@H](NC(=O)[C@H](Cc1ccc(F)cc1)NC(=O)OCc1ccccc1)C(=O)N[C@H](C=O)C[C@@H]1CCCNC1=O [Compound 35]
6.33

* * *

Assay: Cellular toxicity assay in PBM cells
Assay type: cell-based
Details: human, read-out: Cytotoxicity, CC50 (μM) PBM
Answer each item with its documented CC50.
Value expressed in µM; do not type the unit.

Need CC50, item CC(C)C[C@H](NC(=O)[C@H](Cc1cccc2ccccc12)NC(=O)OCc1ccccc1)C(=O)N[C@@H](C[C@@H]1CCCNC1=O)C(O)S(=O)(=O)O (stereo partly drawn) [Compound 37]
44

Need CC50, item O=C(N[C@@H](Cc1cccc2ccccc12)C(=O)N[C@@H](Cc1ccccc1)C(=O)N[C@H](CCl)C[C@@H]1CCCNC1=O)OCc1ccccc1 [Compound 84]
75

Need CC50, item CC(C)C[C@H](NC(=O)[C@H](Cc1cccc2ccccc12)NC(=O)OCc1ccccc1)C(=O)N[C@@H](C[C@@H]1CCCNC1=O)C(O)C(F)(F)F (stereo partly drawn) [Compound 38]
18

Need CC50, item CC(C)C[C@H](NC(=O)[C@H](Cc1cccc2ccccc12)NC(=O)OCc1ccccc1)C(=O)N[C@H](/C=C(\C#N)C(N)=O)C[C@@H]1CCCNC1=O [Compound 36]
45

Need CC50, item O=C[C@H](C[C@@H]1CCCNC1=O)NC(=O)[C@H](Cc1ccccc1)NC(=O)[C@H](Cc1cccc2ccccc12)NC(=O)OCc1ccccc1 [Compound 83]
48.7

Need CC50, item CC(C)C[C@H](NC(=O)[C@H](Cc1cccc2ccccc12)NC(=O)OCc1ccccc1)C(=O)N[C@H](C=O)C[C@@H]1CCCNC1=O [Compound 19]
24

Need CC50, item CC(C)C[C@H](NC(=O)[C@H](Cc1ccc(F)cc1)NC(=O)OCc1ccccc1)C(=O)N[C@H](C=O)C[C@@H]1CCCNC1=O [Compound 35]
52

Need CC50, item CC(C)C[C@H](NC(=O)[C@H](Cc1cccc2ccccc12)NC(=O)OCc1ccccc1)C(=O)N[C@@H](C[C@@H]1CCCNC1=O)C(=O)C(F)(F)F [Compound 39]
39

* * *

Assay: Cellular toxicity assay in CEM cells
Assay type: cell-based
Conditions: human, read-out: Cytotoxicity, CC50 (μM) CEM
property: CC50 (µM)
Value expressed in µM; do not type the unit.

Need CC50, item CC(C)C[C@H](NC(=O)[C@H](Cc1cccc2ccccc12)NC(=O)OCc1ccccc1)C(=O)N[C@H](/C=C(\C#N)C(N)=O)C[C@@H]1CCCNC1=O
9

Need CC50, item CC(C)C[C@H](NC(=O)[C@H](Cc1cccc2ccccc12)NC(=O)OCc1ccccc1)C(=O)N[C@@H](C[C@@H]1CCNC1=O)C1OC1S(C)(=O)=O (some centres unmarked)
64

Need CC50, item CC(C)C[C@H](NC(=O)[C@H](Cc1cccc2ccccc12)NC(=O)OCc1ccccc1)C(=O)N[C@H](C=O)C[C@@H]1CCCNC1=O
32

Need CC50, item CC(C)C[C@H](NC(=O)[C@H](Cc1cccc2ccccc12)NC(=O)OCc1ccccc1)C(=O)N[C@@H](C[C@@H]1CCCNC1=O)C(O)S(=O)(=O)O (some centres unmarked)
18

Need CC50, item CC(C)C[C@H](NC(=O)[C@H](Cc1cccc2ccccc12)NC(=O)c1cnccn1)C(=O)N[C@H](C=O)C[C@@H]1CCNC1=O
38

Need CC50, item CC(C)C[C@H](NC(=O)[C@H](Cc1cccc2ccccc12)NC(=O)c1cnccn1)C(=O)N[C@H](C=O)C[C@@H]1CCCNC1=O
39

Need CC50, item CC(C)C[C@H](NC(=O)[C@H](Cc1cccc2ccccc12)NC(=O)OCc1ccccc1)C(=O)N[C@@H](C[C@@H]1CCCNC1=O)C(=O)C(F)(F)F
2

* * *

Answer each item with its documented IC50.
Target: Norovirus GI.1 (Norwalk virus) protease (Norovirus (strain Human/NoV/United States/Norwalk/1968/GI) (Hu/NV/NV/1968/US), UniProt Q83883)
Experiment: FRET based enzyme assay, Norovirus GI.1 protease
Details: 37° C.
Value expressed in µM; do not type the unit.

Need IC50, item CC(C)C[C@H](NC(=O)[C@H](Cc1cccc2ccccc12)NC(=O)OCc1ccccc1)C(=O)N[C@H](/C=C/C=O)C[C@@H]1CCNC1=O
10

Need IC50, item CC(C)C[C@H](NC(=O)[C@H](Cc1cccc2ccccc12)NC(=O)OCc1ccccc1)C(=O)N[C@@H](C[C@@H]1CCCNC1=O)C(O)S(=O)(=O)O (stereo partly drawn)
0.654
